Here, each record is paired with measured koff data.
- targetUnderTest: T1, human soluble urokinase plasminogen activator receptor (suPAR) (human, UniProt Q03405 23-303, limits assumed)
- T1 construct: Column head says only 'human'; also called human suPAR; hsuPAR
- T1 sequence (Q03405 23-303 limits assumed): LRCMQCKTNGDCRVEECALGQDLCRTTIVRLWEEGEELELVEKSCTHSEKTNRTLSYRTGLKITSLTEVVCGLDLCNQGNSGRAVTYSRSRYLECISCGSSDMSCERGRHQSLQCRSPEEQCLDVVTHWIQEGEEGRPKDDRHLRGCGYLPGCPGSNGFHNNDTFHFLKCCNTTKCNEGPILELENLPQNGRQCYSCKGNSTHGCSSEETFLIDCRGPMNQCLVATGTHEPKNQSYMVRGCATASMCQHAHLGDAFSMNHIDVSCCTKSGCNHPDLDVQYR
- assay: BLI (Octet) off-rate screen of scFv clones
Numbers only; they are read as s⁻¹.

binder="suPAR_DB02_G06 (scFv, V domains shown, scFv clone from phage display) VH: QVQLVQSGAEVKKPGASVKVSCKASGYTFTNYYMHWVRQAPGQGLEWMGWIDHEGGSTIYAQKFQGRVTMTRDTSTSTVYMELSSLRSEDTAVYYCARGYDVDWFVYWGQGTLVTVSS VL: DIQMTQSPSSLSASVGDRVTITCSARSSISYMYWYQQKPGKAPKLLIYRTSNLASGVPSRFSGSGSGTDFTLTISSLQPEDFATYYCQQYHSYPPTFGGGTKVEIK" unitssymbol=s⁻¹ observed=0.00137

Proceeding to the next binder to report its koff.
Notebook: suPAR_DB02_E11 (scFv, V domains shown, scFv clone from phage display) VH: QVQLVQSGAEVKKPGASVKVSCKASGGTFSNYYMHWVRQAPGQGLEWMGWIDHENGNTIYDQKFQGRVTMTRDTSTSTVYMELSSLRSEDTAVYYCARGYDVDWFVYWGQGTLVTVSS VL: DIQMTQSPSSLSASVGDRVTITCRARQSVSYMYWYQQKPGKAPKLLIYRTSSLASGVPSRFSGSGSGTDFTLTISSLQPEDFATYYCQQYHSYPPTFGGGTKVEIK , koff read as 0.00423
